protocol-text: in vivo
Design: species or system Male beagle dogs
condition-set: dog, po, 2.5 mg/kg
Description: Water was given ad libitum. Water was given ad libitum during the test period. In this test, alginic acid gel beads prepared using the low viscosity alginic acid gel beads (IL2, Kimizu Chemicals) were used.
assay-endpoint: AUC at 6 h (ng·h/mL)
Answers are plain numbers, in ng·h/mL.

Data request: Value lookup for AUC at 6 h; key = CC(C)NCC(O)COc1cccc2[nH]ccc12 (stereo not shown)
Data returned: 238
